- procedureDetails: 14C assay: 14CO2 capture from [14C]-carboxyl-labeled dicamba with IPTG-induced recombinant E. coli cells
- conditionParameters: IPTG-induced recombinant E. coli cells; 14CO2 from [14C]-carboxyl-labeled dicamba

| molecule | Dicamba Decarboxylase Activity |
| --- | --- |
| 71 (protein, listed as Burkholderia dolosa) MARAGHRAARTRQSRPGDRTMTCSCCMSAGRRRVLGAFAALAGAPKGPRAASAAQPAAASKPTRGDATARNRHSRALLPGKASASWSATKASGSGGAFAWDDTTFTFRTPAGGLGPLPMKFIDVDARLRDMDASGVDVQALSLSVPMAYWGDRPFNAKLARAWNTAASRVHVRAPDRFVVLATLPMLDATDAIDELERASELPGVRGVYMGTNIDNRDLDDPRFAPVFARIEQLGLPVFLHPQQTVGGARLGDFYLSNLLGNPFDTAIAASHLILGGVLDRHPALHFTLPHAGGALPILVGRLDAGWTVRAETRRLAHQPSGYLRRFSYDTVSHSGPVLNFLIENVGIDRLVLGSDYCFDMGYEQPVRFLDRLDLTPDERAMVIGGNAGRLLRI | Low |
| 47 (protein, listed as Serratia odorifera) MAKIICLEEHTLDKALVMASMPAALAQAPFLSDWGKTITDGNLPDRSRPQIEKNDLINVKGADIGRGRLDDMDEAGITMQVLSVGGFPHLISAAEGVDLNRAANDRLANAVNAHPDRFAAFATLPWAQPDAAEKELERAVKELGFKGALLNGRPSIHFLDHPDYDGLLARFNALGVPLYLHPGLPVRSVQQAYYSGFSDEVTARLSMFGWGWHHEAGIHLLRLILSGAFDKYPNLQVISGHWGEMLPFWLQRLDDSLPQAATGLRRTITQTFREQVYVTPSGMLTLPHFQFIYALLGAERILFSVDYPYQTLDGVKAFIQSLPVPEEAKEAIAFRNAERLFGLTS | High |
| 84 (protein, listed as Mycobacterium rhodesiae) MASLIALEEHYAWDPASEGNVVATWLRANNGVAYDRLYDRGPLRIEQMDAAGIDFQILSLFDPGVQDEVDAVRAVDLARRANDDLAESVRANPSRFGGFATLATQQPDAAVAEFDRAVTELGLVGGLINGHCQGRYLDDPAYEALFSRAEALGAPIYLHPTTPHPAVMDAWFAPYVGDGLHLASWGFAAETGTHVLRLIYSGLFDKFPRLQMIIGHLGEMLPFAAYRIDRYYGLGGGGTGHTLQHLPSDYLRNNFHVTTSGNFCSPALDCTLDVMGADRVMFSVDYPMDDNQTGADFLASYPMDDTNRRKVASENALRLFGDRIPAALRN | Low |
| 35 (protein, Burkholderia sp) MAFKASRKIALEEHFAIDATVQDSAGFVPPSYWAELKRRLLDIHDRRIDEMDRNGVELMVLSLNAPTVQAVPNIKDAYDLSRRANDFLAEQIVKRPERFKGFAALPMQSPDLAARELERCVKELNFVGALVNGFSQVEESGTALYYDLPQYRQFWSVVQALDVPFYLHPRNPLPAHAPIYEGHPWLLGPTWAFGQETAVHALRLMGSGLFDEYPELKIILGHMGEGLPYSMWRIDNRNAWVETQPNYPAKKRIAEYFHKNFWLTTSGNFRTQTLIDAMLEIGSDRILFSTDWPFENVDHAAQWFDDAAISENDRIKIARTNAARLFKLEP | High |
